Ref: paper PMC5700166

# binding signal annotations
MEASUREMENT TARGET: GST-Dm-Relish (Drosophila melanogaster, UniProt Q94527 99-473)
Sequence: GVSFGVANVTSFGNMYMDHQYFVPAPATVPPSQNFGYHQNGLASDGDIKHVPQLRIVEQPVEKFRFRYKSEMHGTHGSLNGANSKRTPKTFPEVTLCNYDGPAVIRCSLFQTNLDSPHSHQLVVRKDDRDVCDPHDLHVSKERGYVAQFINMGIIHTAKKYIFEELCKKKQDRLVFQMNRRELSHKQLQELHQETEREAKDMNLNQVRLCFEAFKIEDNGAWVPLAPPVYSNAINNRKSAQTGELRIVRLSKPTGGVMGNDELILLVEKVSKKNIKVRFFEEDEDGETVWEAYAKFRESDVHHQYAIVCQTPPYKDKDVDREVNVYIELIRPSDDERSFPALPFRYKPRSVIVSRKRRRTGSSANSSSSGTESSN
ASSAY NAME: protein-binding microarray (PBM); PBM: ~300 nM protein, 6 mM HEPES pH 7.8, 80 mM KCl, 0.5 mM EDTA, 0.5 mM EGTA, 6% glycerol, 35 ng/ul poly-dIdC, 1% milk, 1 h, room temperature; Ap Aiptasia and Nv Nematostella (sea anemones) / Co Capsaspora / Aq Amphimedon (sponge) / Dm Drosophila / Hu human; RHD is the Rel homology domain; high values mean tight binding
ASSAY CONDITIONS: dsDNA, one strand shown
ATTRIBUTE MEASURED: binding signal (z-score)

[[record]]
item_sequence = "CCGATTAACATCAGGGGACTTACTGATGTTAATCGGGTCTTGATTCGCTTGACGCTGCTG"
measurement_target = "GST-Dm-Relish (Drosophila melanogaster, UniProt Q94527 99-473)"
scale_unit = "z-score"
assay_result = 8.32

[[record]]
item_sequence = "CCGATTAACATCAAATTCCCAATTGATGTTAATCGGGTCTTGATTCGCTTGACGCTGCTG"
measurement_target = "GST-Dm-Relish (Drosophila melanogaster, UniProt Q94527 99-473)"
scale_unit = "z-score"
assay_result = 3.56

[[record]]
item_sequence = "CCGATTAACATCAGGAATTTTTATGATGTTAATCGGGTCTTGATTCGCTTGACGCTGCTG"
measurement_target = "GST-Dm-Relish (Drosophila melanogaster, UniProt Q94527 99-473)"
scale_unit = "z-score"
assay_result = 1.94

[[record]]
item_sequence = "CCGATTAACATCAATACTTCCCCTGATGTTAATCGGGTCTTGATTCGCTTGACGCTGCTG"
measurement_target = "GST-Dm-Relish (Drosophila melanogaster, UniProt Q94527 99-473)"
scale_unit = "z-score"
assay_result = 7.81

[[record]]
item_sequence = "CCGATTAACATCACGGGAATTCCTGATGTTAATCGGGTCTTGATTCGCTTGACGCTGCTG"
measurement_target = "GST-Dm-Relish (Drosophila melanogaster, UniProt Q94527 99-473)"
scale_unit = "z-score"
assay_result = 8.07

[[record]]
item_sequence = "CCGATTAACATCACTATACCCCCTGATGTTAATCGGGTCTTGATTCGCTTGACGCTGCTG"
measurement_target = "GST-Dm-Relish (Drosophila melanogaster, UniProt Q94527 99-473)"
scale_unit = "z-score"
assay_result = 2.21

[[record]]
item_sequence = "CCGATTAACATCAAAGTTCCCCCTGATGTTAATCGGGTCTTGATTCGCTTGACGCTGCTG"
measurement_target = "GST-Dm-Relish (Drosophila melanogaster, UniProt Q94527 99-473)"
scale_unit = "z-score"
assay_result = 8.65

[[record]]
item_sequence = "CCGATTAACATCACAGAATTCCCTGATGTTAATCGGGTCTTGATTCGCTTGACGCTGCTG"
measurement_target = "GST-Dm-Relish (Drosophila melanogaster, UniProt Q94527 99-473)"
scale_unit = "z-score"
assay_result = 4.28

[[record]]
item_sequence = "CCGATTAACATCAGGGTAATACCTGATGTTAATCGGGTCTTGATTCGCTTGACGCTGCTG"
measurement_target = "GST-Dm-Relish (Drosophila melanogaster, UniProt Q94527 99-473)"
scale_unit = "z-score"
assay_result = 3.92

[[record]]
item_sequence = "CCGATTAACATCAGGGAGCTACCTGATGTTAATCGGGTCTTGATTCGCTTGACGCTGCTG"
measurement_target = "GST-Dm-Relish (Drosophila melanogaster, UniProt Q94527 99-473)"
scale_unit = "z-score"
assay_result = 1.02

[[record]]
item_sequence = "CCGATTAACATCAAAAAAACACCTGATGTTAATCGGGTCTTGATTCGCTTGACGCTGCTG"
measurement_target = "GST-Dm-Relish (Drosophila melanogaster, UniProt Q94527 99-473)"
scale_unit = "z-score"
assay_result = 4.97

[[record]]
item_sequence = "CCGATTAACATCAGCGAATTCCCTGATGTTAATCGGGTCTTGATTCGCTTGACGCTGCTG"
measurement_target = "GST-Dm-Relish (Drosophila melanogaster, UniProt Q94527 99-473)"
scale_unit = "z-score"
assay_result = 2.72

[[record]]
item_sequence = "CCGATTAACATCATATTTCCCCATGATGTTAATCGGGTCTTGATTCGCTTGACGCTGCTG"
measurement_target = "GST-Dm-Relish (Drosophila melanogaster, UniProt Q94527 99-473)"
scale_unit = "z-score"
assay_result = 2.89

[[record]]
item_sequence = "CCGATTAACATCAATATAGTCCCTGATGTTAATCGGGTCTTGATTCGCTTGACGCTGCTG"
measurement_target = "GST-Dm-Relish (Drosophila melanogaster, UniProt Q94527 99-473)"
scale_unit = "z-score"
assay_result = 1.16

